target: c-Kit kinase (Homo sapiens); assay: c-Kit AlphaScreen assay
Sequence (P10721 26-976): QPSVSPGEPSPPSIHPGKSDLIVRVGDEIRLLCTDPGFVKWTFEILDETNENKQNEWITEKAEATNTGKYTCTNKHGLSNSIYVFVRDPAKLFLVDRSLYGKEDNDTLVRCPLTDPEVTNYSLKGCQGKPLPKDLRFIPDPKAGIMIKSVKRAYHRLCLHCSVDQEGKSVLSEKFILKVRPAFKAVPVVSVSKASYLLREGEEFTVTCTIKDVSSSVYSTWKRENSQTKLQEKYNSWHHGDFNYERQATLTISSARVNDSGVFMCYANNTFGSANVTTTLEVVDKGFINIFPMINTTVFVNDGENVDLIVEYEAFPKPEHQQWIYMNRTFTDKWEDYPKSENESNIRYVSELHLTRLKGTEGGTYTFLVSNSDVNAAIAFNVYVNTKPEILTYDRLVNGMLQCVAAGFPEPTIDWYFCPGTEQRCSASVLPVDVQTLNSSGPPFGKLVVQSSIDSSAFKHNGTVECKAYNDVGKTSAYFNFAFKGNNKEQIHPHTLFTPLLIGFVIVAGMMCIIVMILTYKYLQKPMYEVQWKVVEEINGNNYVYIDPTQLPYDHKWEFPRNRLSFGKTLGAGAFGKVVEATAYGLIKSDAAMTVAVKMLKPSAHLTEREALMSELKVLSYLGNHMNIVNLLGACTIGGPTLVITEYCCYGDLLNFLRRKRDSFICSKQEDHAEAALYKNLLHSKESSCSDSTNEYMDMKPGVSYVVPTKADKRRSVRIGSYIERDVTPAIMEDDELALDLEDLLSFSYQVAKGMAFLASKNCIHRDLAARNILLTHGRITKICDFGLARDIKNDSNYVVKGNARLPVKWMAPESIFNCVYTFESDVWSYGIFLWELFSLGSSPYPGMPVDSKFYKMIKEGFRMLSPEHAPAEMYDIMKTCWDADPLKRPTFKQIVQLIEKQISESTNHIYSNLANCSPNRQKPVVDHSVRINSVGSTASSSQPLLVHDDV

Compound: COc1cc2c(Oc3ccc(NC(=O)C(=O)NCCc4ccc(F)cc4)cc3F)ccnc2cc1OCCCN1CCOCC1 [Entry 1]
IC50: < 0.05 µM
